Experimental Target: HER2 expressed on the surface of cells (human, UniProt P04626 23-1255)
Assay Name: cell-based or functional assay
The following binders are shown together with reported increase in potency with respect to the WT, NCI-N87 cells values.
Output should be the measured figure followed by the unit it is expressed in.

Example results:
Binder: Variant 14022 (antibody, name in Kabat numbering, V domains shown, also called v14022) VH: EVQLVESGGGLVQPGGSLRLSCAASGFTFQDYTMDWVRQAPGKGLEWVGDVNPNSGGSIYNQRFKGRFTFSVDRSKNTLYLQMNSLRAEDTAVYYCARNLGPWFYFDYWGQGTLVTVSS VL: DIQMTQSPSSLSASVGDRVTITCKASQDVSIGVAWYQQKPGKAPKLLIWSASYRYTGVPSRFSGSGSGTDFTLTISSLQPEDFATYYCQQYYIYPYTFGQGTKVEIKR
Result: 1.8 fold
--
Binder: Variant 14019 (antibody, name in Kabat numbering, V domains shown, also called v14019) VH: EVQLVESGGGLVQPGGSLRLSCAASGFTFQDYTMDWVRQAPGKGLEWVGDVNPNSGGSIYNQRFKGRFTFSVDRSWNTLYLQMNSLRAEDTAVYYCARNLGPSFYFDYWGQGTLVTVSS VL: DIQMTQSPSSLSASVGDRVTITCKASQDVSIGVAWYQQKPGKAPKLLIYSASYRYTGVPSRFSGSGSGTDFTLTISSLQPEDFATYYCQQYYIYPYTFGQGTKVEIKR
Result: 2.2 fold

Now for another entry.
**Q:** Return reported increase in potency with respect to the WT, NCI-N87 cells; argument: Variant 14020 (antibody, name in Kabat numbering, V domains shown, also called v14020) VH: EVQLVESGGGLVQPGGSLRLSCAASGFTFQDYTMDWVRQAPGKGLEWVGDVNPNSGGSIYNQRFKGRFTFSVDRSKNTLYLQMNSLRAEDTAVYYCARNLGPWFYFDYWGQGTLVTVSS VL: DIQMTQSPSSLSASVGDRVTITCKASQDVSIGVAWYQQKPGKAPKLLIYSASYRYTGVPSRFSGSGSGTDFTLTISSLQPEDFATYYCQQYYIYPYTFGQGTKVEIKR
**A:** 2.6 fold
